TESTED_SYSTEM: T1, soluble human insulin receptor-immunoglobulin heavy chain chimera (human, UniProt P06213 28-956)
T1 construct: extracellular domain; Heterotetramer; also called IR; sIR-Fc; not shown: immunoglobulin heavy chain constant domains replacing the transmembrane and intr
PROTOCOL_NOTES: phage ELISA ratios compared
RESULT_TYPE: IR/IGF-1R ratio comparison
Respond using a number only.

Q: Fill in: IR/IGF-1R ratio comparison of TSEVQRRSQDNFYDWFVAQVA [A6S-3-E2-IR] is ___
A: 0.4

Further cases:
Q: Fill in: IR/IGF-1R ratio comparison of PAGPCGFYCGLGLLLHGDQSP [20E2B-4-H8-IGFR] is ___
A: 0.2

Q: Fill in: IR/IGF-1R ratio comparison of APDPSDFQEIFYDWFVRQVSRMPGGG [H2CA-1-A3-IGFR] is ___
A: 0.2

Q: Fill in: IR/IGF-1R ratio comparison of QFYGCLLDLSLGVPSFGWRRRCITA [20C-3-A4-IGFR] is ___
A: 0.1

Q: Fill in: IR/IGF-1R ratio comparison of VATSQGFYSGLSELLQGGGNV [20E2B-3-E12-IGFR] is ___
A: 0.1

Q: Fill in: IR/IGF-1R ratio comparison of VNQSGSIHENFYDWFERQVSHQRGVR [H2CA-4-F10-IGFR] is ___
A: 0.2

Q: Fill in: IR/IGF-1R ratio comparison of RGKTAAVIVGRPADPFYHKLSELLQGG [B6Hα-3-E8-IR] is ___
A: 0.2

Q: Fill in: IR/IGF-1R ratio comparison of SACQFDCHENFYDWFARQVSGGAAYG [H2CA-4-H8-IGFR] is ___
A: 0.1

Q: Fill in: IR/IGF-1R ratio comparison of PPLASDLDVQFYGWFVQQVSPPGRGG [H2CA-2-B3-IGFR] is ___
A: 0.3

Q: Fill in: IR/IGF-1R ratio comparison of LSVALSFYDALGQLVAGEGRW [20E2A-3-A12-IGFR] is ___
A: 0.3

Q: Fill in: IR/IGF-1R ratio comparison of RQGTGSFYLMLEQLLVGARGP [20E2B-4-G11-IGFR] is ___
A: 0.1

Q: Fill in: IR/IGF-1R ratio comparison of CCTTEMVVMDARDDPFYHKLSELVTGG [B6Hα-1-B5-IR] is ___
A: 0
